Source listed as patent US11628228B2.

# Tested on: S180-bearing mice
# method: Bio-distribution in tumor-bearing mice
# Assay type: in vivo
# run conditions: S180-bearing mice, tail vein, 30 min
quantity name: Liver uptake (% ID/g)
Answer with a number only, understood to be in % ID/g.

For the compound O=C(CC[N+]#[C][99Tc-5]([C]#[N+]CCC(=O)NC1C(O)OC(CO)C(O)C1O)([C]#[N+]CCC(=O)NC1C(O)OC(CO)C(O)C1O)([C]#[N+]CCC(=O)NC1C(O)OC(CO)C(O)C1O)([C]#[N+]CCC(=O)NC1C(O)OC(CO)C(O)C1O)[C]#[N+]CCC(=O)NC1C(O)OC(CO)C(O)C1O)NC1C(O)OC(CO)C(O)C1O (stereo not shown) [[^99mTc-(CN2DG)6]^+] , what Liver uptake is on record?
0.35

====

# Test system: S180-bearing mice
# method: Bio-distribution in tumor-bearing mice
# Format: in vivo
# run conditions: S180-bearing mice, tail vein, 30 min
quantity name: Kidney uptake (% ID/g)
Just the number in % ID/g, nothing appended.

compound	unit of measurement	Kidney uptake
O=C(CCC[N+]#[C][99Tc-5]([C]#[N+]CCCC(=O)NC1C(O)OC(CO)C(O)C1O)([C]#[N+]CCCC(=O)NC1C(O)OC(CO)C(O)C1O)([C]#[N+]CCCC(=O)NC1C(O)OC(CO)C(O)C1O)([C]#[N+]CCCC(=O)NC1C(O)OC(CO)C(O)C1O)[C]#[N+]CCCC(=O)NC1C(O)OC(CO)C(O)C1O)NC1C(O)OC(CO)C(O)C1O (stereo not drawn) [[^99mTc-(CN3DG)6]^+]	% ID/g	2.17

Tell me reported Kidney uptake for O=C(CC[N+]#[C][99Tc-5]([C]#[N+]CCC(=O)NC1C(O)OC(CO)C(O)C1O)([C]#[N+]CCC(=O)NC1C(O)OC(CO)C(O)C1O)([C]#[N+]CCC(=O)NC1C(O)OC(CO)C(O)C1O)([C]#[N+]CCC(=O)NC1C(O)OC(CO)C(O)C1O)[C]#[N+]CCC(=O)NC1C(O)OC(CO)C(O)C1O)NC1C(O)OC(CO)C(O)C1O (stereo not drawn) [[^99mTc-(CN2DG)6]^+] , tested with S180-bearing mice.
3.11

What is its Kidney uptake for S180-bearing mice? Entry: O=C(CCCC[N+]#[C][99Tc-5]([C]#[N+]CCCCC(=O)NC1C(O)OC(CO)C(O)C1O)([C]#[N+]CCCCC(=O)NC1C(O)OC(CO)C(O)C1O)([C]#[N+]CCCCC(=O)NC1C(O)OC(CO)C(O)C1O)([C]#[N+]CCCCC(=O)NC1C(O)OC(CO)C(O)C1O)[C]#[N+]CCCCC(=O)NC1C(O)OC(CO)C(O)C1O)NC1C(O)OC(CO)C(O)C1O (stereo not drawn) [[^99mTc-(CN4DG)6]^+]
4.93

====

Measured Tumor/muscle ratio, listed per entry for reference.
# System: S180-bearing mice
# method: Bio-distribution in tumor-bearing mice
# Assay type: in vivo
# run conditions: S180-bearing mice, tail vein, 30 min

compound	target of assay	val
O=C(CCCCC[N+]#[C][99Tc-5]([C]#[N+]CCCCCC(=O)NC1C(O)OC(CO)C(O)C1O)([C]#[N+]CCCCCC(=O)NC1C(O)OC(CO)C(O)C1O)([C]#[N+]CCCCCC(=O)NC1C(O)OC(CO)C(O)C1O)([C]#[N+]CCCCCC(=O)NC1C(O)OC(CO)C(O)C1O)[C]#[N+]CCCCCC(=O)NC1C(O)OC(CO)C(O)C1O)NC1C(O)OC(CO)C(O)C1O (stereo not shown) [[^99mTc-(CN5DG)6]^+]	S180-bearing mice	3.98

Param readout = Tumor/muscle ratio; param system = S180-bearing mice; param query = O=C(CCCC[N+]#[C][99Tc-5]([C]#[N+]CCCCC(=O)NC1C(O)OC(CO)C(O)C1O)([C]#[N+]CCCCC(=O)NC1C(O)OC(CO)C(O)C1O)([C]#[N+]CCCCC(=O)NC1C(O)OC(CO)C(O)C1O)([C]#[N+]CCCCC(=O)NC1C(O)OC(CO)C(O)C1O)[C]#[N+]CCCCC(=O)NC1C(O)OC(CO)C(O)C1O)NC1C(O)OC(CO)C(O)C1O (stereo not shown) [[^99mTc-(CN4DG)6]^+] ; response: value
3.01

Param readout= Tumor/muscle ratio; system= S180-bearing mice; entry= O=C(CC[N+]#[C][99Tc-5]([C]#[N+]CCC(=O)NC1C(O)OC(CO)C(O)C1O)([C]#[N+]CCC(=O)NC1C(O)OC(CO)C(O)C1O)([C]#[N+]CCC(=O)NC1C(O)OC(CO)C(O)C1O)([C]#[N+]CCC(=O)NC1C(O)OC(CO)C(O)C1O)[C]#[N+]CCC(=O)NC1C(O)OC(CO)C(O)C1O)NC1C(O)OC(CO)C(O)C1O (stereo not shown) [[^99mTc-(CN2DG)6]^+] ; returns value.
4.04

I'm curious: which Tumor/muscle ratio was measured for O=C(CCC[N+]#[C][99Tc-5]([C]#[N+]CCCC(=O)NC1C(O)OC(CO)C(O)C1O)([C]#[N+]CCCC(=O)NC1C(O)OC(CO)C(O)C1O)([C]#[N+]CCCC(=O)NC1C(O)OC(CO)C(O)C1O)([C]#[N+]CCCC(=O)NC1C(O)OC(CO)C(O)C1O)[C]#[N+]CCCC(=O)NC1C(O)OC(CO)C(O)C1O)NC1C(O)OC(CO)C(O)C1O (stereo not shown) [[^99mTc-(CN3DG)6]^+] tested on S180-bearing mice?
4.03

====

# System: S180-bearing mice
# method: Bio-distribution in tumor-bearing mice
# Assay type: in vivo
# run conditions: S180-bearing mice, tail vein, 60 min
quantity name: Stomach uptake (% ID/g)
Expressed in % ID/g, but write only the number.

Name the reported Stomach uptake value associated with the compound O=C(CC[N+]#[C][99Tc-5]([C]#[N+]CCC(=O)NC1C(O)OC(CO)C(O)C1O)([C]#[N+]CCC(=O)NC1C(O)OC(CO)C(O)C1O)([C]#[N+]CCC(=O)NC1C(O)OC(CO)C(O)C1O)([C]#[N+]CCC(=O)NC1C(O)OC(CO)C(O)C1O)[C]#[N+]CCC(=O)NC1C(O)OC(CO)C(O)C1O)NC1C(O)OC(CO)C(O)C1O (stereo not drawn) [[^99mTc-(CN2DG)6]^+]
0.19

// lookup Stomach uptake for O=C(CCC[N+]#[C][99Tc-5]([C]#[N+]CCCC(=O)NC1C(O)OC(CO)C(O)C1O)([C]#[N+]CCCC(=O)NC1C(O)OC(CO)C(O)C1O)([C]#[N+]CCCC(=O)NC1C(O)OC(CO)C(O)C1O)([C]#[N+]CCCC(=O)NC1C(O)OC(CO)C(O)C1O)[C]#[N+]CCCC(=O)NC1C(O)OC(CO)C(O)C1O)NC1C(O)OC(CO)C(O)C1O (stereo not drawn) [[^99mTc-(CN3DG)6]^+]
0.25

What does the record list as Stomach uptake for O=C(CCCC[N+]#[C][99Tc-5]([C]#[N+]CCCCC(=O)NC1C(O)OC(CO)C(O)C1O)([C]#[N+]CCCCC(=O)NC1C(O)OC(CO)C(O)C1O)([C]#[N+]CCCCC(=O)NC1C(O)OC(CO)C(O)C1O)([C]#[N+]CCCCC(=O)NC1C(O)OC(CO)C(O)C1O)[C]#[N+]CCCCC(=O)NC1C(O)OC(CO)C(O)C1O)NC1C(O)OC(CO)C(O)C1O (stereo not drawn) [[^99mTc-(CN4DG)6]^+] ?
0.23

====

# Test system: S180-bearing mice
# method: Bio-distribution in tumor-bearing mice
# Assay type: in vivo
# run conditions: S180-bearing mice, tail vein, 120 min
The reader will find reported Tumor/muscle ratio values listed item by item below.
The answer should be written as a number, with no unit following it.

For orientation, consider the following solved cases.
molecule	target of assay	Tumor/muscle ratio
O=C(CC[N+]#[C][99Tc-5]([C]#[N+]CCC(=O)NC1C(O)OC(CO)C(O)C1O)([C]#[N+]CCC(=O)NC1C(O)OC(CO)C(O)C1O)([C]#[N+]CCC(=O)NC1C(O)OC(CO)C(O)C1O)([C]#[N+]CCC(=O)NC1C(O)OC(CO)C(O)C1O)[C]#[N+]CCC(=O)NC1C(O)OC(CO)C(O)C1O)NC1C(O)OC(CO)C(O)C1O (stereo not shown) [[^99mTc-(CN2DG)6]^+]	S180-bearing mice	6.25
O=C(CCCCC[N+]#[C][99Tc-5]([C]#[N+]CCCCCC(=O)NC1C(O)OC(CO)C(O)C1O)([C]#[N+]CCCCCC(=O)NC1C(O)OC(CO)C(O)C1O)([C]#[N+]CCCCCC(=O)NC1C(O)OC(CO)C(O)C1O)([C]#[N+]CCCCCC(=O)NC1C(O)OC(CO)C(O)C1O)[C]#[N+]CCCCCC(=O)NC1C(O)OC(CO)C(O)C1O)NC1C(O)OC(CO)C(O)C1O (stereo not shown) [[^99mTc-(CN5DG)6]^+]	S180-bearing mice	4.16
O=C(CCCC[N+]#[C][99Tc-5]([C]#[N+]CCCCC(=O)NC1C(O)OC(CO)C(O)C1O)([C]#[N+]CCCCC(=O)NC1C(O)OC(CO)C(O)C1O)([C]#[N+]CCCCC(=O)NC1C(O)OC(CO)C(O)C1O)([C]#[N+]CCCCC(=O)NC1C(O)OC(CO)C(O)C1O)[C]#[N+]CCCCC(=O)NC1C(O)OC(CO)C(O)C1O)NC1C(O)OC(CO)C(O)C1O (stereo not shown) [[^99mTc-(CN4DG)6]^+]	S180-bearing mice	3.00

What Tumor/muscle ratio value was documented for this molecule, O=C(CCC[N+]#[C][99Tc-5]([C]#[N+]CCCC(=O)NC1C(O)OC(CO)C(O)C1O)([C]#[N+]CCCC(=O)NC1C(O)OC(CO)C(O)C1O)([C]#[N+]CCCC(=O)NC1C(O)OC(CO)C(O)C1O)([C]#[N+]CCCC(=O)NC1C(O)OC(CO)C(O)C1O)[C]#[N+]CCCC(=O)NC1C(O)OC(CO)C(O)C1O)NC1C(O)OC(CO)C(O)C1O (stereo not shown) [[^99mTc-(CN3DG)6]^+] ?
4.00
